Test system: Neutrophil
measurement.notes: Inhibition of fMLP/CB-activated human neutrophil degranulation assessed as inhibition of elastase release using MeO-Suc-Ala-Ala-Pro-Val-p-nitroanilide as a substrate after 5 mins
Format: functional, cell-based
pIC50: −log10 of the molar value.
readout.kind: pIC50

compound	number
CC1(C)CC[C@]2(C(=O)O[C@@H]3O[C@H](CO)[C@@H](O)[C@H](O)[C@H]3O)CC[C@]3(C)C(=CC[C@@H]4[C@@]5(C)CC[C@H](O[C@@H]6O[C@H](C(=O)O)[C@@H](O)[C@H](O)[C@H]6O)C(C)(C)[C@@H]5CC[C@]43C)[C@@H]2C1	5.32
CCCCOC(=O)[C@H]1O[C@@H](O[C@H]2CC[C@]3(C)[C@H]4CC=C5[C@@H]6CC(C)(C)CC[C@]6(C(=O)O[C@@H]6O[C@H](CO)[C@@H](O)[C@H](O)[C@H]6O)CC[C@@]5(C)[C@]4(C)CC[C@H]3C2(C)C)[C@H](O)[C@@H](O)[C@@H]1O[C@@H]1O[C@@H](CO)[C@H](O)[C@H]1O [TAIBAIENOSIDE I]	5.87
CC1(C)CC[C@]2(C(=O)O[C@@H]3O[C@H](CO)[C@@H](O)[C@H](O)[C@H]3O)CC[C@]3(C)C(=CC[C@@H]4[C@@]5(C)CC[C@H](O[C@@H]6O[C@H](C(=O)O[C@@H]7O[C@H](CO)[C@@H](O)[C@H](O)[C@H]7O)[C@@H](O[C@@H]7O[C@@H](CO)[C@H](O)[C@H]7O)[C@H](O)[C@H]6O)C(C)(C)[C@@H]5CC[C@]43C)[C@@H]2C1	5.73

---

Tested on: Neutrophil
measurement.notes: Inhibition of fMLP/CB-stimulated superoxide anion generation in human neutrophils
Type: functional, cell-based
readout.kind: IC50 (µM)

compound	readout.kind	number
CCCCOC(=O)[C@H]1O[C@@H](O[C@H]2CC[C@]3(C)[C@H]4CC=C5[C@@H]6CC(C)(C)CC[C@]6(C(=O)O[C@@H]6O[C@H](CO)[C@@H](O)[C@H](O)[C@H]6O)CC[C@@]5(C)[C@]4(C)CC[C@H]3C2(C)C)[C@H](O[C@@H]2OC[C@@H](O)[C@H](O)[C@H]2O)[C@@H](O)[C@@H]1O	IC50	21.2
COC(=O)[C@H]1O[C@@H](O[C@H]2CC[C@]3(C)[C@H]4CC=C5[C@@H]6CC(C)(C)CC[C@]6(C(=O)O[C@@H]6O[C@H](CO)[C@@H](O)[C@H](O)[C@H]6O)CC[C@@]5(C)[C@]4(C)CC[C@H]3C2(C)C)[C@H](O[C@H]2OC[C@@H](O)[C@H](O)[C@H]2O)[C@@H](O)[C@@H]1O [PSEUDOGINSENOSIDE RT1 METHYL ESTER]	IC50	5.26
CCCCOC(=O)[C@H]1O[C@@H](O[C@H]2CC[C@]3(C)[C@H]4CC=C5[C@@H]6CC(C)(C)CC[C@]6(C(=O)O[C@@H]6O[C@H](CO)[C@@H](O)[C@H](O)[C@H]6O)CC[C@@]5(C)[C@]4(C)CC[C@H]3C2(C)C)[C@H](O)[C@@H](O)[C@@H]1O	IC50	3.73

---

Test system: Neutrophil
measurement.notes: Inhibition of fMLP/CB-activated human neutrophil degranulation assessed as inhibition of elastase release at 30 uM using MeO-Suc-Ala-Ala-Pro-Val-p-nitroanilide as a substrate after 5 mins relative to control
Assay type: functional
inhibition at 30 µM listing for selected compounds.
readout.kind: inhibition at 30 µM (%)

compound	number
CC(C)=CCC[C@](C)(O[C@@H]1O[C@H](CO)[C@@H](O)[C@H](O)[C@H]1O)[C@H]1CC[C@]2(C)[C@@H]1[C@H](O)C[C@@H]1[C@@]3(C)CC[C@H](O[C@@H]4O[C@H](CO)[C@@H](O)[C@H](O)[C@H]4O[C@@H]4O[C@H](CO)[C@@H](O)[C@H](O)[C@H]4O)C(C)(C)[C@@H]3CC[C@]12C [GINSENOSIDE RD]	2.88
CC[C@H](CC[C@@H](C)[C@H]1CC[C@H]2[C@@H]3CC=C4C[C@@H](O[C@@H]5O[C@H](CO)[C@@H](O)[C@H](O)[C@H]5O)CC[C@]4(C)[C@H]3CC[C@]12C)C(C)C [SITOGLUSIDE]	21.7
C/C(=C/CC[C@](C)(O)[C@H]1CC[C@]2(C)[C@@H]1[C@H](O)C[C@@H]1[C@@]3(C)CC[C@H](O)C(C)(C)[C@@H]3[C@@H](O[C@@H]3O[C@H](CO)[C@@H](O)[C@H](O)[C@H]3O[C@@H]3O[C@H](CO)[C@@H](O)[C@H](O)[C@H]3O)C[C@]12C)CO	42

Value source: ChEMBL document CHEMBL1772996
